// provenance: patent US10189838B2

# Tested on: RSV Long strain
# assay-text: Viral cytopathic effect (CPE) assay, RSV Long strain
# Assay type: cell-based, Respiratory Syncytial Virus
# assay-context: human respiratory syncytial virus, 144 h, cell viability after 6 days (Cell Counting kit-8)
pEC50: −log10 of the molar value.
The label is rule met for pEC50 below 7 and rule not met for pEC50 equal to or exceeding 7.

- molecule: "CS(=O)(=O)CCCc1c(CN2C(=O)C3(CC3)c3ccncc32)[nH]c2cc(Cl)ccc12"
  category: "rule not met"
- molecule: "O=C1N(Cc2nc3cc(Cl)ccc3n2CC2COC2)c2cnccc2C12CC2"
  category: "rule not met"
- molecule: "[2H]C([2H])(c1cc2cc(Cl)ccc2n1CCCS(C)(=O)=O)N1C(=O)C2(CC2)c2ccncc21"
  category: "rule not met"
- molecule: "CS(=O)(=O)CCCn1c(CN2C(=O)C3(CC3)c3ccncc32)cc2cc(Cl)ncc21"
  category: "rule not met"
- molecule: "C[S+]([O-])CCCn1c(CN2C(=O)C3(CC3)c3ccncc32)cc2cc(Cl)ccc21 (stereo not shown)"
  category: "rule not met"
- molecule: "O=C(NCC(F)(F)F)OCCCn1c(CN2C(=O)C3(CC3)c3ccncc32)cc2cc(Cl)ccc21"
  category: "rule not met"
- molecule: "CS(=O)(=O)CCCCn1c(CN2C(=O)C3(CC3)c3ccncc32)cc2cc(Cl)ccc21"
  category: "rule not met"
- molecule: "CS(=O)(=O)CCCn1c(CN2C(=O)C3(CC3)c3ccncc32)cc2nc(Cl)ccc21"
  category: "rule not met"
- molecule: "CN(C(=O)CCn1c(CN2C(=O)C3(CC3)c3ccncc32)cc2cc(Cl)ccc21)S(C)(=O)=O"
  category: "rule not met"
- molecule: "CCS(=O)(=O)CCn1c(CN2C(=O)C3(CC3)c3ccncc32)cc2cc(Cl)ccc21"
  category: "rule not met"
- molecule: "CS(=O)(=O)CCCn1c(CN2C(=O)C3(CC3)c3ccncc32)nc2cc(Cl)ccc21"
  category: "rule not met"
- molecule: "O=C1N(Cc2cc3cc(Cl)ccc3n2CCCNCCO)c2cnccc2C12CC2"
  category: "rule met"
- molecule: "[2H]C([2H])(c1cc2cc(Cl)ccc2n1CCS(C)(=O)=O)N1C(=O)C2(CC2)c2ccncc21"
  category: "rule not met"
- molecule: "CS(=O)(=O)CCn1c(CN2C(=O)C3(CCCC3)c3ccncc32)cc2cc(Cl)cnc21"
  category: "rule met"
- molecule: "O=C1CNC(=O)N1CCn1c(CN2C(=O)C3(CC3)c3ccncc32)cc2cc(Cl)ccc21"
  category: "rule met"
